# Experiment summary: Kinetic aqueous solubility by CLND
# Type: physicochemical
# Test settings: Table 2; kinetic, CLND; read-out: Aq. solubility
Property label: solubility

Smiles repr: O=C(Nc1cc(-c2cn3cc(N4CCOCC4)cnc3n2)ccc1F)N1CCCC1
solubility: 256 µM
//
Smiles repr: O=C(Nc1cccc(-c2cn3cc(N4CCOCC4)cnc3n2)n1)N1CCCC1
solubility: ≥ 476 µM
//
Smiles repr: O=C(Nc1cnnc(-c2cn3cc(N4CCOCC4)cnc3n2)c1)N1CCCC1
solubility: 355 µM

Would you kindly share the measured solubility for `O=C(Nc1nccc(-c2cn3cc(N4CCOCC4)cnc3n2)n1)N1CCCC1` ? ≥ 470 µM

Would you kindly share the measured solubility for `COc1ccc(NC(=O)N2CCCC2)cc1-c1cn2cc(N3CCOCC3)cnc2n1` ? ≥ 425 µM

Would you kindly share the measured solubility for `O=C(Nc1ccc(F)c(-c2cn3cc(N4CCOCC4)cnc3n2)c1)N1CCCC1` ? 150 µM

----------
# Experiment summary: FaSSIF (fasted state simulated intestinal fluid) solubility
# Assay type: physicochemical
# Test settings: supplementary csv
Property label: solubility (µM)
Lab book: enter the figure in µM, no units written.

Below are worked cases with known answers.
Compound: C[C@@H]1CN(c2cnc3nc(-c4cc(NC(=O)N5CCCC5)ccc4F)ccn23)C[C@H](C)O1
solubility / µM: 365
//
Compound: O=C(Nc1ccc(F)c(-c2ccn3c(N4CCC5(CCOC5)C4)cnc3n2)c1)N1CCCC1 (stereo not shown)
solubility / µM: 850

The record that follows has no solubility shown yet.
Would you kindly share the measured solubility for `CC(C)c1cnc2nc(-c3cc(NC(=O)N4CCCC4)ccc3F)ccn12` ? 70

----------
# Test system: THP-1 cells
# Experiment summary: THP-1 host cell read-out of the INMAC assay
# Type: cell-based
# Test settings: Homo sapiens, THP-1; supplementary csv; read-out: THP1 pIC50 (converted)
// IC50 lookup, one value per entry

Would you kindly share the measured IC50 for O=C(Nc1cnnc(-c2cn3cc(N4CCOCC4)cnc3n2)c1)N1CCCC1 [Compound 13] ? > 50.1 µM

Would you kindly share the measured IC50 for CC(C)Nc1cnc2nc(-c3cc(NC(=O)N4CCCC4)ccc3F)ccn12 [Compound 45] ? 50.1 µM

Would you kindly share the measured IC50 for O=C(Nc1ccc(F)c(-c2cc3cc(N4CCOCC4)cnn3n2)c1)N1CCCC1 [Compound 26] ? > 50.1 µM

Would you kindly share the measured IC50 for Cn1c(-c2cc(NC(=O)N3CCCC3)ccc2F)cc2cc(N3CCOCC3)cnc21 [Compound 19] ? > 50.1 µM

Would you kindly share the measured IC50 for O=C(Nc1cccc(-c2cn3cc(N4CCOCC4)cnc3n2)n1)N1CCCC1 [Compound 9] ? > 50.1 µM

Would you kindly share the measured IC50 for O=C(Nc1ccc(F)c(-c2ccn3c(N4CCC5(CCOC5)C4)cnc3n2)c1)N1CCCC1 (centres unmarked) [Compound 44] ? 50.1 µM

Would you kindly share the measured IC50 for COc1ccc(-c2cn3cc(N4CCOCC4)cnc3n2)cc1NC(=O)N1CCCC1 [Compound 8] ? > 50.1 µM

Would you kindly share the measured IC50 for O=C(Nc1ccc(F)c(-c2cc3nc(N4CCOCC4)cnc3o2)c1)N1CCCC1 [Compound 21] ? > 50.1 µM

----------
# Experiment summary: Kinetic aqueous solubility by CLND
# Assay type: physicochemical
# Test settings: supplementary csv; read-out: Aqueous Solubility
solubility below 300 µM gives false (0); solubility at or above it gives true (1).

Here's what some known entries look like.
Compound: O=C(Nc1ccc(F)c(-c2ccn3c(N4CCCCC4)cnc3n2)c1)N1CCCC1
Category: true (1)
--
Compound: O=C(Nc1cncc(-c2cn3cc(N4CCOCC4)cnc3n2)n1)N1CCCC1
Category: true (1)
--
Compound: O=C(Nc1cc(-c2cn3cc(N4CCOCC4)cnc3n2)ccc1F)N1CCCC1
Category: false (0)
--
Compound: CC1(C)CN(c2cnc3nc(-c4cc(NC(=O)N5CCCC5)ccc4F)ccn23)CCO1
Category: false (0)
--
Compound: CC(C)Nc1cnc2nc(-c3cc(NC(=O)N4CCCC4)ccc3F)ccn12
Category: false (0)

solubility >= 300 µM for O=C(Nc1ccc(F)c(-c2ccn3c(N4CCC5(CCOC5)C4)cnc3n2)c1)N1CCCC1 (centres unmarked) ? true (1)

solubility >= 300 µM for `O=C(Nc1ccc(F)c(-c2cc3nc(N4CCOCC4)cnc3[nH]2)c1)N1CCCC1` ? false (0)

solubility >= 300 µM for `O=C(Nc1ccc(F)c(-c2nc3ncc(N4CCOCC4)cn3n2)c1)N1CCCC1` ? true (1)
